# system-name: T1, TNFR1 (Homo sapiens, UniProt P19438)
# T1 chain: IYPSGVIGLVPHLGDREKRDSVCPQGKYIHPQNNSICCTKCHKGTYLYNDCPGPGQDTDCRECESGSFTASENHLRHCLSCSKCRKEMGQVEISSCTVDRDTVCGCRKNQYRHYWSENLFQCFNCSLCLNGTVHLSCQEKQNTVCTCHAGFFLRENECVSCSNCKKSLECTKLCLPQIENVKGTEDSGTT
# measurement-protocol: yeast display SC50
observation-type: apparent Kd (screen) (nM)
Please respond with the number in nM and leave the unit unwritten.

Here are 3 binders together with their reported answers.
binder="E45Q (designed binder) SMEEEVEKAAKEYEKKKKEAIEKHLEKLKAKDKEAAERFLKELEQAAKEYAKDEAKTMSEEEAKRRAKKYKEKVLLSELSEEEQKEIKEAEEKLVRTILKYVEEAAK" experimental_value=1.05
binder="S80G (designed binder) SMEEEVEKAAKEYEKKKKEAIEKHLEKLKAKDKEAAERFLKELEEAAKEYAKDEAKTMSEEEAKRRAKKYKEKVLLSELGEEEQKEIKEAEEKLVRTILKYVEEAAK" experimental_value=2.48
binder="Y50P (designed binder) SMEEEVEKAAKEYEKKKKEAIEKHLEKLKAKDKEAAERFLKELEEAAKEPAKDEAKTMSEEEAKRRAKKYKEKVLLSELSEEEQKEIKEAEEKLVRTILKYVEEAAK" experimental_value=4.39

Attention now shifts to the item below.
Query: Output apparent Kd (screen) of K85Q (designed binder) SMEEEVEKAAKEYEKKKKEAIEKHLEKLKAKDKEAAERFLKELEEAAKEYAKDEAKTMSEEEAKRRAKKYKEKVLLSELSEEEQQEIKEAEEKLVRTILKYVEEAAK
Result: 0.539
